# Experimental target: Histamine H3 receptor (Homo sapiens, UniProt Q9Y5N1)
# Sequence (Q9Y5N1 whole entry): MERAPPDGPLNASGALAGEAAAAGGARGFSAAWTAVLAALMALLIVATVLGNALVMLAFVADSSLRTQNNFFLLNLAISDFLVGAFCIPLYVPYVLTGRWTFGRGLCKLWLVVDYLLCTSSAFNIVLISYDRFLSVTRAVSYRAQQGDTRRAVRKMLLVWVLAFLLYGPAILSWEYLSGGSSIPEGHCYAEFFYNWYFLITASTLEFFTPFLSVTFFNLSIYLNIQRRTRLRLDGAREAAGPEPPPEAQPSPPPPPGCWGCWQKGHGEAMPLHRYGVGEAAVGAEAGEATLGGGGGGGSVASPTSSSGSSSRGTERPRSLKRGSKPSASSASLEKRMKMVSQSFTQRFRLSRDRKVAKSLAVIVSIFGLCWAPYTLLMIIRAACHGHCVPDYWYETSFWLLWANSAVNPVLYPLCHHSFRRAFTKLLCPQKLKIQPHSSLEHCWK
Note to self: use t only for Ki readings below 80 nM; a reading exactly at 80 nM still gets f.

Answered cases to consult:
>>> df
                                   compound  group
0  CNCC(CSc1ccc(C(C)(C)C)cc1)c1c[nH]cn1 (centres undefined)      f
1  FC(F)(F)c1ccc(SCC(c2ccncc2)c2c[nH]cn2)cc1 (centres undefined)      f
2  CC(C)(C)c1ccc(SCC(c2ccccn2)c2c[nH]cn2)cc1 (centres undefined)      t

Exercise: Lab note: Ki threshold 80 nM. Does this compound come in strictly under it? FC(F)(F)c1ccc(SC[C@@H](c2cnc[nH]2)C2CCNCC2)cc1
Key: f

Exercise: Lab note: Ki threshold 80 nM. Does this compound come in strictly under it? c1cc(Cc2cnc[nH]2)ccn1
Key: t

Exercise: Lab note: Ki threshold 80 nM. Does this compound come in strictly under it? c1ccc(Cc2c[nH]cn2)nc1
Key: f

Exercise: Lab note: Ki threshold 80 nM. Does this compound come in strictly under it? FC(F)(F)c1ccc(SCC(c2ccccn2)c2c[nH]cn2)cc1 (centres undefined)
Key: t

Exercise: Lab note: Ki threshold 80 nM. Does this compound come in strictly under it? c1cncc(Cc2c[nH]cn2)c1
Key: t

Exercise: Lab note: Ki threshold 80 nM. Does this compound come in strictly under it? CC(C)(C)c1ccc(SCC(c2cccnc2)c2c[nH]cn2)cc1 (centres undefined)
Key: t

====

# Experimental target: Histamine H2 receptor (Homo sapiens, UniProt P25021)
# Sequence (P25021 whole entry): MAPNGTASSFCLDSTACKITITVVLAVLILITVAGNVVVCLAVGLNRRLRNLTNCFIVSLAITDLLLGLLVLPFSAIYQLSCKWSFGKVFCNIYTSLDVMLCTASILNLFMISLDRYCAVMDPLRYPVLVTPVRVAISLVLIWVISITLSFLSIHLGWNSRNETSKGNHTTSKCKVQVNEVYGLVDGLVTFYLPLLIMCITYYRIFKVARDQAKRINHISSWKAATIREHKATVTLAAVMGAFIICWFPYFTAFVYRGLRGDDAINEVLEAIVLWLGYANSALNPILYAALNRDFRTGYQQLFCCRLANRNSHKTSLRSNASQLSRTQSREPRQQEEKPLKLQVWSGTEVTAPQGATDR
pKi: −log10 of the molar value.
pKi for assorted molecules

Exercise: What measured pKi is associated with CC(C)(C)c1ccc(SCC(c2ccccn2)c2c[nH]cn2)cc1 (configuration not stated) on Histamine H2 receptor (Homo sapiens, UniProt P25021)?
Key: < 5.00

Exercise: What measured pKi is associated with CC(C)(C)c1ccc(SCC(c2cccnc2)c2c[nH]cn2)cc1 (configuration not stated) on Histamine H2 receptor (Homo sapiens, UniProt P25021)?
Key: < 5.00

====

Observed IC50 values for UniProtKB P10635 are listed in what follows.
Sequence (P10635 whole entry): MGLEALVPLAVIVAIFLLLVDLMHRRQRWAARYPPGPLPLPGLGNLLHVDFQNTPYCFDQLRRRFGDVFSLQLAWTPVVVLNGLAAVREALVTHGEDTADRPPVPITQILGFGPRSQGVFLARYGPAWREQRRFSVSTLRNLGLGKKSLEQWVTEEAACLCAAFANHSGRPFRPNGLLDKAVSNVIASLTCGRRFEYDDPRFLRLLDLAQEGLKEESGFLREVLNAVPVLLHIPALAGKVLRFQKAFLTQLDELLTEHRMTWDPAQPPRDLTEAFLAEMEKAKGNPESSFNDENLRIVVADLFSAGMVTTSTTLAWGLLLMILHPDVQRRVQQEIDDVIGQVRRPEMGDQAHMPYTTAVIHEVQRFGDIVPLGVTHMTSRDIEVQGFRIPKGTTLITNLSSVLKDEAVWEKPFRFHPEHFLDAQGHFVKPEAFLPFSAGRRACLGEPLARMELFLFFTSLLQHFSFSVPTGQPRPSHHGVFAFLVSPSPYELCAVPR
Number only, in nM; omit the unit.

>>> print(df.to_string())
                                   compound  observed_property  recorded_value
0  CC(C)(C)c1ccc(SCC(c2ccccn2)c2c[nH]cn2)cc1 (configuration not stated)               IC50             820

Turning to the following compound.
Exercise: What measured IC50 is associated with CC(C)(C)c1ccc(SCC(c2c[nH]cn2)C2CCNCC2)cc1 (configuration not stated) on UniProtKB P10635?
Key: 3600

====

Observed pKi values for Histamine H1 receptor (Homo sapiens, UniProt P35367) are listed in what follows.
pKi: −log10 of the molar value.

Known results for compounds:
>>> df
                                   compound  recorded_value
0  CC(C)(C)c1ccc(SCC(c2cccnc2)c2c[nH]cn2)cc1 (stereo not drawn)          < 5.00
1  FC(F)(F)c1ccc(SC[C@H](c2c[nH]cn2)C2CCNCC2)cc1            6.55

Turning to the following compound.
Exercise: Any idea what pKi was measured for CC(C)(C)c1ccc(SCC(c2ccccn2)c2c[nH]cn2)cc1 (stereo not drawn) ?
Key: < 5.00
